Entry source: patent US12077503B2

system: ryegrass, Italian (Italian ryegrass, Lolium multiflorum); assay: Test A postemergence; assay type: in vivo; conditions: 500 g ai/ha, postemergence; 0 to 100 scale, 0 no effect, 100 complete control
Overview of recorded Plant response rating, Ryegrass, Italian for various molecules

molecule: Cc1ccc(F)c(NC(=O)C2C(=O)NCC2c2cccc(OC(F)F)c2)c1 (stereo not drawn)
tested.target: ryegrass, Italian (Italian ryegrass, Lolium multiflorum)
Plant response rating, Ryegrass, Italian: 0

molecule: COc1c(F)ccc(NC(=O)C2C(=O)N(C)CC2c2cccc(OC(F)(F)C(F)F)c2)c1F (stereo not drawn)
tested.target: ryegrass, Italian (Italian ryegrass, Lolium multiflorum)
Plant response rating, Ryegrass, Italian: 50

molecule: Cc1ccc(C2CNC(=O)C2C(=O)Nc2ccccc2F)cc1F (racemic)
tested.target: ryegrass, Italian (Italian ryegrass, Lolium multiflorum)
Plant response rating, Ryegrass, Italian: 50

molecule: CN1CC(c2ccc(C(F)(F)F)cc2)C(C(=S)Nc2ccccc2F)C1=O (stereo not drawn)
tested.target: ryegrass, Italian (Italian ryegrass, Lolium multiflorum)
Plant response rating, Ryegrass, Italian: 50

molecule: Cc1cc(C2CN(C)C(=O)C2C(=O)Nc2ccccc2S(C)(=O)=O)ccc1F (stereo not drawn)
tested.target: ryegrass, Italian (Italian ryegrass, Lolium multiflorum)
Plant response rating, Ryegrass, Italian: 60

molecule: Cc1c(F)ccc(NC(=O)C2C(=O)NCC2c2cccc(OC(F)(F)C(F)F)c2)c1F (stereo not drawn)
tested.target: ryegrass, Italian (Italian ryegrass, Lolium multiflorum)
Plant response rating, Ryegrass, Italian: 30
